The origin of these recorded values is paper PMC6308302.

assay: Stability tests in rat plasma (QC samples, HPLC-MS); settings: Placing plasma for 6h at 4°C, spiked 400 ng/mL, n=5
Property measured: Stability: RE

Give Stability: RE for the following molecule: Cc1coc2c1C(=O)C(=O)c1c-2ccc2c(C)cccc12
17.35%

Give Stability: RE for the following molecule: CC(C)=CCC[C@](C)(O[C@@H]1O[C@H](CO)[C@@H](O)[C@H](O)[C@H]1O)[C@H]1CC[C@]2(C)[C@@H]1[C@H](O)C[C@@H]1[C@@]3(C)CC[C@H](O[C@@H]4O[C@H](CO)[C@@H](O)[C@H](O)[C@H]4O[C@@H]4O[C@H](CO)[C@@H](O)[C@H](O)[C@H]4O)C(C)(C)[C@@H]3CC[C@]12C [Rd, ginsenoside Rd]
12.47%

---

assay: Multiple component PK study in rat plasma after p.o. GDDP (HPLC-MS); settings: Sprague-Dawley, rat, plasma, po, 0.8 g/kg
Property measured: MRT inf (h)
The reply should contain only the number, in h.

Example cases with answers are listed next.
CC(C)=CCC[C@](C)(O[C@@H]1O[C@H](CO[C@@H]2O[C@H](CO)[C@@H](O)[C@H](O)[C@H]2O)[C@@H](O)[C@H](O)[C@H]1O)[C@H]1CC[C@]2(C)[C@@H]1[C@H](O)C[C@@H]1[C@@]3(C)CC[C@H](O[C@@H]4O[C@H](CO)[C@@H](O)[C@H](O)[C@H]4O[C@@H]4O[C@H](CO)[C@@H](O)[C@H](O)[C@H]4O)C(C)(C)[C@@H]3CC[C@]12C [Rb1, ginsenoside Rb1] :: 17.1
C[C@H]1COC2=C1C(=O)C(=O)c1c2ccc2c1CCCC2(C)C [CTS, cryptotanshinone] :: 0.84
Cc1coc2c1C(=O)C(=O)c1c-2ccc2c(C)cccc12 [TS I, tanshinone I] :: 7.72
Cc1cccc2c3c(ccc12)C1=C(C(=O)C3=O)[C@@H](C)CO1 [DHTS I, dihydrotanshinone I] :: 7.26
CC(C)=CCC[C@](C)(O[C@@H]1O[C@H](CO)[C@@H](O)[C@H](O)[C@H]1O)[C@H]1CC[C@]2(C)[C@@H]1[C@H](O)C[C@@H]1[C@@]3(C)CC[C@H](O[C@@H]4O[C@H](CO)[C@@H](O)[C@H](O)[C@H]4O[C@@H]4O[C@H](CO)[C@@H](O)[C@H](O)[C@H]4O)C(C)(C)[C@@H]3CC[C@]12C [Rd, ginsenoside Rd] :: 17.3

Note: attention shifts to another entry.
Give MRT inf for the following compound: CC(C)=CCC[C@](C)(O[C@@H]1O[C@H](CO)[C@@H](O)[C@H](O)[C@H]1O)[C@H]1CC[C@]2(C)[C@@H]1[C@H](O)C[C@@H]1[C@@]3(C)CC[C@H](O)C(C)(C)[C@@H]3[C@@H](O[C@@H]3O[C@H](CO)[C@@H](O)[C@H](O)[C@H]3O[C@@H]3OC[C@@H](O)[C@H](O)[C@H]3O)C[C@]12C [R1, notoginsenoside R1]
1.92

---

test: Stability tests in rat plasma (QC samples, HPLC-MS); conditions: 24h in auto-sampler vials, spiked 2 ng/mL, n=5
Measured Stability: RE of individual entries
The reply should contain only the number, in %.

Give Stability: RE for the following molecule: Cc1cccc2c3c(ccc12)C1=C(C(=O)C3=O)[C@@H](C)CO1 [DHTS I, dihydrotanshinone I]
10.31

Give Stability: RE for the following molecule: CC(C)=CCC[C@](C)(O[C@@H]1O[C@H](CO[C@@H]2O[C@H](CO)[C@@H](O)[C@H](O)[C@H]2O)[C@@H](O)[C@H](O)[C@H]1O)[C@H]1CC[C@]2(C)[C@@H]1[C@H](O)C[C@@H]1[C@@]3(C)CC[C@H](O[C@@H]4O[C@H](CO)[C@@H](O)[C@H](O)[C@H]4O[C@@H]4O[C@H](CO)[C@@H](O)[C@H](O)[C@H]4O)C(C)(C)[C@@H]3CC[C@]12C [Rb1, ginsenoside Rb1]
-1.62

Give Stability: RE for the following molecule: C[C@H]1COC2=C1C(=O)C(=O)c1c2ccc2c1CCCC2(C)C [CTS, cryptotanshinone]
-10.32

Give Stability: RE for the following molecule: CC(C)=CCC[C@](C)(O[C@@H]1O[C@H](CO)[C@@H](O)[C@H](O)[C@H]1O)[C@H]1CC[C@]2(C)[C@@H]1[C@H](O)C[C@@H]1[C@@]3(C)CC[C@H](O)C(C)(C)[C@@H]3[C@@H](O[C@@H]3O[C@H](CO)[C@@H](O)[C@H](O)[C@H]3O[C@@H]3OC[C@@H](O)[C@H](O)[C@H]3O)C[C@]12C [R1, notoginsenoside R1]
-5.63

Give Stability: RE for the following molecule: Cc1coc2c1C(=O)C(=O)c1c-2ccc2c1CCCC2(C)C [TS IIA, tanshinone (TS) IIA]
12.73

Give Stability: RE for the following molecule: Cc1coc2c1C(=O)C(=O)c1c-2ccc2c(C)cccc12 [TS I, tanshinone I]
0.78

Give Stability: RE for the following molecule: CC(C)=CCC[C@](C)(O[C@@H]1O[C@H](CO)[C@@H](O)[C@H](O)[C@H]1O)[C@H]1CC[C@]2(C)[C@@H]1[C@H](O)C[C@@H]1[C@@]3(C)CC[C@H](O[C@@H]4O[C@H](CO)[C@@H](O)[C@H](O)[C@H]4O[C@@H]4O[C@H](CO)[C@@H](O)[C@H](O)[C@H]4O)C(C)(C)[C@@H]3CC[C@]12C [Rd, ginsenoside Rd]
-3.59
